FYI, the data here is from paper PMC6009955.

molecular target: Human proto-oncogene serine/threonine-protein kinase pim-1 (PIM1) (Homo sapiens); construct: purchased MBS7573; test: Pim-1 kinase inhibitory activity (PIM1 ELISA kit); type: biochemical; details: pim-1 kinase, 25 µM; read-out: % Inhibition at 25µM
recorded metric: inhibition at 25 µM (%)

• Cc1nc2sc3c(c2c(C)c1Br)NC(c1ccc(F)cc1)NC3=O (stereo not shown) = 89
• Cc1nc2sc3c(c2c(C)c1Br)NC(c1ccc(Cl)cc1)NC3=O (stereo not shown) = 92
• Cc1nc2sc3c(c2c(C)c1Br)NC(c1ccsc1)NC3=O (stereo not shown) = 95
• Cc1nc2sc3c(c2c(C)c1Br)NC(c1ccc(O)cc1O)NC3=O (stereo not shown) = 81
• Cc1nc2sc3c(ncn4ncnc34)c2c(C)c1Br = 81
• Cc1nc2sc3c(ncn4nc(C(F)(F)F)nc34)c2c(C)c1Br = 93
• Cc1nc2sc3c(=N)n(N=Cc4ccc(Br)cc4)cnc3c2c(C)c1Br = 88

###

recorded metric: melting point

Example results:
- Cc1nc2sc3c(c2c(C)c1Br)NC(c1ccc(Br)cc1)NC3=O (stereo not shown) [Compound 3b]: > 300 °C
- Cc1nc2sc3c(ncn4ncnc34)c2c(C)c1Br [Compound 6]: 277 to 278 °C

Problem: Quick one: melting point of Cc1nc2sc3c(=N)n(N=Cc4ccc(Br)cc4)cnc3c2c(C)c1Br [Compound 9a] ?
Solution: > 300 °C

Problem: Next record, please: Cc1nc2sc3c(c2c(C)c1Br)NC(c1ccc(O)cc1O)NC3=O (stereo not shown) [Compound 3d]
Solution: 290 to 291 °C

###

Below, each of the compounds is paired with its reported melting point value.

* CCOC(=O)Cc1nc2c3sc4nc(C)c(Br)c(C)c4c3ncn2n1 | 198 to 199 °C
* Cc1nc2sc3c(c2c(C)c1Br)NC(c1ccc(Cl)cc1)NC3=O (stereo not drawn) | > 300 °C
* Cc1nc2sc3c(c2c(C)c1Br)NC(c1ccc(OCc2ccccc2)cc1)NC3=O (stereo not drawn) | 255 to 256 °C
* Cc1nc2sc3c(ncn4nc(C(F)(F)F)nc34)c2c(C)c1Br | 199 to 200 °C

Problem: Quick one: melting point of COc1ccc(C2NC(=O)c3sc4nc(C)c(Br)c(C)c4c3N2)cc1 (stereo not drawn) ?
Solution: > 300 °C

Problem: Next record, please: "Cc1nc2sc3c(=N)n(N=Cc4ccccc4C(F)(F)F)cnc3c2c(C)c1Br"
Solution: > 300 °C

###

target: Human proto-oncogene serine/threonine-protein kinase pim-1 (PIM1) (Homo sapiens, UniProt P11309); construct: purchased MBS7573; test: Pim-1 kinase inhibitory activity (PIM1 ELISA kit); assay type: biochemical; details: pim-1 kinase; tested at 0.2, 1, 5 and 25 µM
Sequence (P11309 whole entry): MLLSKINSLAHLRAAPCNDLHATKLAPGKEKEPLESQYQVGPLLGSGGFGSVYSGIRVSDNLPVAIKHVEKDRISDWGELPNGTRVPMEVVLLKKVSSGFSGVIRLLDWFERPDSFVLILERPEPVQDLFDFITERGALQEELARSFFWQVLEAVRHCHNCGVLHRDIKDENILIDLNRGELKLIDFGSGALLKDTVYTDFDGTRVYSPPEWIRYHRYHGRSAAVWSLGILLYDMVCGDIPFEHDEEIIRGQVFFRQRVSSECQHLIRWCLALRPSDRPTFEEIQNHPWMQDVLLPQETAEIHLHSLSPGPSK
recorded metric: IC50 (nM)

• Cc1nc2sc3c(c2c(C)c1Br)NC(c1ccc(Cl)cc1)NC3=O (centres unmarked) = 140
• Cc1nc2sc3c(ncn4ncnc34)c2c(C)c1Br = 1080
• COc1ccc(C2NC(=O)c3sc4nc(C)c(Br)c(C)c4c3N2)cc1 (centres unmarked) = 1170

1 = CCOC(=O)Cc1nc2c3sc4nc(C)c(Br)c(C)c4c3ncn2n1
2 = Cc1nc2sc3c(c2c(C)c1Br)NC(c1ccc(O)cc1O)NC3=O (centres unmarked)
Problem: Lower value of IC50 belongs to which: 1 or 2 ? Returns: label corresponding to the selected item.
Solution: 1

A = Cc1nc2sc3c(c2c(C)c1Br)NC(c1ccc(OCc2ccccc2)cc1)NC3=O (centres unmarked)
B = COc1cc(C2NC(=O)c3sc4nc(C)c(Br)c(C)c4c3N2)ccc1O (centres unmarked)
Problem: Lab notebook, comparison: A versus B , higher IC50 goes to which? Returns: label corresponding to the selected item.
Solution: A
(A: 960 nM, B: 80 nM)

a = Cc1nc2sc3c(c2c(C)c1Br)NC(c1ccc(O)c(O)c1)NC3=O (centres unmarked)
b = Cc1nc2c3sc4nc(C)c(Br)c(C)c4c3ncn2n1
c = Cc1nc2sc3c(c2c(C)c1Br)NC(c1ccsc1)NC3=O (centres unmarked)
Problem: Arrange the 3 entries by IC50 so the values rise. To answer, arrange all of the labels according to the requested order.
Solution: a, c, b
(a: 60 nM, c: 100 nM, b: 1760 nM)

###

molecular target: Human proto-oncogene serine/threonine-protein kinase pim-1 (PIM1) (Homo sapiens, UniProt P11309); construct: purchased MBS7573; assay: Pim-1 kinase inhibitory activity (PIM1 ELISA kit); type: biochemical; settings: pim-1 kinase, 25 µM; read-out: % Inhibition at 25µM
recorded metric: inhibition at 25 µM (%)

- COc1ccc(C2NC(=O)c3sc4nc(C)c(Br)c(C)c4c3N2)cc1 (stereo not drawn): 84
- Cc1nc2c3sc4nc(C)c(Br)c(C)c4c3ncn2n1: 76
- Cc1nc2sc3c(=N)n(N=Cc4ccccc4C(F)(F)F)cnc3c2c(C)c1Br: 89
- COc1cc(C2NC(=O)c3sc4nc(C)c(Br)c(C)c4c3N2)cc(OC)c1OC (stereo not drawn): 81
- Cc1nc2sc3c(c2c(C)c1Br)NC(c1ccc(O)c(O)c1)NC3=O (stereo not drawn): 93
- Cc1nc2sc3c(c2c(C)c1Br)NC(c1ccc(OCc2ccccc2)cc1)NC3=O (stereo not drawn): 83
- CCOC(=O)Cc1nc2c3sc4nc(C)c(Br)c(C)c4c3ncn2n1: 95
- Cc1nc2sc3c(c2c(C)c1Br)NC(c1ccc(Br)cc1)NC3=O (stereo not drawn): 96
- COc1cc(C2NC(=O)c3sc4nc(C)c(Br)c(C)c4c3N2)ccc1O (stereo not drawn): 92

###

target: Human proto-oncogene serine/threonine-protein kinase pim-1 (PIM1) (Homo sapiens, UniProt P11309); test: Pim-1 kinase inhibitory activity (PIM1 ELISA kit); settings: pim-1 kinase; tested at 0.2, 1, 5 and 25 µM
pIC50: −log10 of the molar value.
recorded metric: pIC50

Example results:
- Cc1nc2sc3c(c2c(C)c1Br)NC(c1ccc(F)cc1)NC3=O (centres unmarked) [Compound 3f]: 6.00
- Cc1nc2sc3c(=N)n(N=Cc4ccc(Br)cc4)cnc3c2c(C)c1Br [Compound 9a]: 6.28

A = Cc1nc2sc3c(=N)n(N=Cc4ccccc4C(F)(F)F)cnc3c2c(C)c1Br [Compound 9b]
B = COc1cc(C2NC(=O)c3sc4nc(C)c(Br)c(C)c4c3N2)cc(OC)c1OC (centres unmarked) [Compound 3i]
C = Cc1nc2sc3c(c2c(C)c1Br)NC(c1ccc(Br)cc1)NC3=O (centres unmarked) [Compound 3b]
Problem: Please list these molecules in decreasing order of pIC50. To answer, arrange all of the labels according to the requested order.
Solution: C, A, B
(C: 7.22, A: 6.66, B: 6.03)

###

Below, each of the compounds is paired with its reported melting point value.

• Cc1nc2sc3c(c2c(C)c1Br)NC(c1ccc(F)cc1)NC3=O (stereo not drawn) = > 300 °C
• Cc1nc2sc3c(c2c(C)c1Br)NC(c1ccsc1)NC3=O (stereo not drawn) = 280 to 281 °C

Problem: Quick one: melting point of COc1cc(C2NC(=O)c3sc4nc(C)c(Br)c(C)c4c3N2)cc(OC)c1OC (stereo not drawn) ?
Solution: > 300 °C
